target: human full length sortilin (Homo sapiens (Human)); test: Human sortilin neurotensin scintillation proximity (SPA) binding assay; conditions: 5 nM [3H]-Neurotensin radioligand; 150 nM His-tagged human full length sortilin; SPA; read-out: hSortilin NTS Binding IC50 (nM) [3H] neurotensin
readout.kind: IC50 (nM)

INSERT INTO assay_data (entry_smiles, readout_kind, endpoint_result) VALUES
  ('COCc1cccc(NC(=O)c2ccc(C(F)(F)F)cc2C(=O)O)n1', 'IC50', 725),
  ('O=C(O)c1cc(C(F)(F)F)ccc1C(=O)Nc1ccc2c(n1)COCC2', 'IC50', 60),
  ('O=C(O)c1cc(C(F)(F)F)ccc1C(=O)Nc1cccc(CO)n1', 'IC50', 340);

====

biological target: human full length sortilin (Homo sapiens (Human), UniProt Q99523)
Sequence (Q99523 78-755): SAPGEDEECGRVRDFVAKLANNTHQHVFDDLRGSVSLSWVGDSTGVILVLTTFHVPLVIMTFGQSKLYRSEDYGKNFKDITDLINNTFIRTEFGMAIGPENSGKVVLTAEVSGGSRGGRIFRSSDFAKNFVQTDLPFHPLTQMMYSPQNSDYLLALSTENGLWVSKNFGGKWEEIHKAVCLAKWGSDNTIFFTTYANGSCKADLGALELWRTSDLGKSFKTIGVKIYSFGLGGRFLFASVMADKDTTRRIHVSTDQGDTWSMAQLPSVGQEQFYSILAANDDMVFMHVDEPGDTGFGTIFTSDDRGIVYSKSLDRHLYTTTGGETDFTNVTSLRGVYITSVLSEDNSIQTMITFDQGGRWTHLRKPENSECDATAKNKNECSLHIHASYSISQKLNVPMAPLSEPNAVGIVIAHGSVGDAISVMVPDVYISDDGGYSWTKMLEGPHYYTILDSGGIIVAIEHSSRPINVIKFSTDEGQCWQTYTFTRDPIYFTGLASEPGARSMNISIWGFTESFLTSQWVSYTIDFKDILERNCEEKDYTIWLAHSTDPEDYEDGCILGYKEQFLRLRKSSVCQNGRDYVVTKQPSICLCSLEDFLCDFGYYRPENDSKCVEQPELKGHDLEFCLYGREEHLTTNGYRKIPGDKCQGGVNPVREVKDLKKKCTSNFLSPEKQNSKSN
readout.kind: Ki (nM)

INSERT INTO assay_data (compound, unit_of_measurement, endpoint_result) VALUES
  ('O=C(O)c1cc(C(F)(F)F)ccc1C(=O)Nc1cccc(CO)n1 [Example 3]', 'nM', 340);
